All figures here come from patent US8759338B2.

- Target entity: PIM1 (Homo sapiens (Human))
- Sequence (P11309 whole entry, species assumed): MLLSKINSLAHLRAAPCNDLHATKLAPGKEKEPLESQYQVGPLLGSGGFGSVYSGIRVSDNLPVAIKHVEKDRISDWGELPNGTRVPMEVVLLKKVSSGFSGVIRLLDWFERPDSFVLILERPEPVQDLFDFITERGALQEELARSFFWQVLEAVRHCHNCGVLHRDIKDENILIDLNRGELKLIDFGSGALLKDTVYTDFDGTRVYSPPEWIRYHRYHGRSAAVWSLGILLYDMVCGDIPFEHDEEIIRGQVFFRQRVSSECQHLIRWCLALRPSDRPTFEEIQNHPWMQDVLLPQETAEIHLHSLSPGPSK
- Protocol text: Pim1 ATP depletion assay
- Type: biochemical
- Cond: 20 μM ATP, 40 μM BAD peptide
- Experimental: The activity of PIM1 is measured using a luciferase-luciferin based ATP detection reagent to quantify ATP depletion resulting from kinase-catalyzed phosphoryl transfer to a peptide substrate. Compounds to be tested are dissolved in 100% DMSO and directly distributed into white 384-well plates at 0.5 μA per well. […] The stopped reaction is incubated for 10 minutes and the remaining ATP detected via luminescence on the Victor2 (Perkin Elmer). […]
Quantity kind: IC50 (µM)
Numbers only; they are read as µM.

Examples with answers:
# Compound, IC50 (µM)
data = [
    ("N[C@@H]1CN(c2ccncc2Nc2cccc3cnc(-c4c(F)cccc4F)nc23)CC[C@@H]1O [Example 2]", 0.039),
    ("N[C@H]1C[C@@H](CF)CN(c2ccncc2Nc2cccc3cnc(-c4c(F)cccc4F)nc23)C1 [Example 13]", 0.053),
    ("C[C@H]1C[C@@H](N)CN(c2ccncc2Nc2cccc3cnc(-c4c(F)cccc4F)nc23)C1 [Example 14]", 0.882),
    ("NC1CC(N)CN(c2ccncc2Nc2cccc3cnc(-c4c(F)cccc4F)nc23)C1 (centres unmarked) [Example 8]", 2.3),
    ("N[C@H]1CCCN(c2ccncc2Nc2cccc3cnc(-c4c(F)cccc4F)nc23)C1 [Example 17]", 0.021),
]

Prompt: Supply recorded IC50 for NC1C=C(c2ccncc2Nc2cccc3cnc(-c4c(F)cccc4F)nc23)CCC1 (centres unmarked) [Example 1] here.
Response: 0.152

Prompt: Supply recorded IC50 for N[C@H]1CCCN(c2ccncc2Nc2cccc3cnc(-c4cccc(-c5nccs5)c4)nc23)C1 [Example 19] here.
Response: 0.056

Prompt: Supply recorded IC50 for N[C@@H]1CN(c2ccncc2Nc2cccc3cnc(-c4c(F)cccc4F)nc23)CC[C@H]1F [Example 9] here.
Response: 0.465
